assay: Thermal properties (Td); format: physicochemical; conditions: thermal property of the PAG
Below, each of the molecules is paired with its reported Td value.
// return numeric value only (unit: °C, not printed)

Recorded Td, per entry:
O=C1CCC(CC(F)(F)C(F)(F)OC(F)(F)C(F)(F)S(=O)(=O)O)O1 (stereo not shown) :: 165
O=S(=O)(O)C(F)(F)C(F)(F)CCCl :: 205

Fill in reported Td for this entry: O=S(=O)(O)C(F)(F)C(F)(F)Oc1ccccc1 190

State, in one line, measured Td of O=S(=O)(O)C(F)(F)C(F)(F)OC(F)(F)C(F)(F)C1CC2CCC1C2 (stereo not shown) 164
